Below, each of the compounds is paired with its reported melting point value.
measured metric: melting point

[[record]]
compound = "Brc1ccc(C2(c3ccccc3)OCCO2)cc1"
measured_metric = "melting point"
value_measured = "54 to 56 °C"

[[record]]
compound = "COc1ccc(Nc2ccccc2)c2ccccc12"
measured_metric = "melting point"
value_measured = "108 to 110 °C"

[[record]]
compound = "CC(=O)SC(CC(=O)c1ccc(C(C)C)cc1)C(=O)O (stereo unspecified)"
measured_metric = "melting point"
value_measured = "84 to 86 °C"

[[record]]
compound = "CCSc1[nH]c2cccc3c2c1CC1C3C=C(C)CN1C (stereo unspecified)"
measured_metric = "melting point"
value_measured = "168 to 169 °C"

[[record]]
compound = "COC(=O)c1ncnn1C1OC(COC(=O)c2ccccc2)C(OC(=O)c2ccccc2)C1OC(=O)c1ccccc1 (stereo unspecified)"
measured_metric = "melting point"
value_measured = "122 to 124 °C"

[[record]]
compound = "Cc1nn(-c2c(Cl)cc(C(F)(F)F)cc2Cl)c(N)c1C=O"
measured_metric = "melting point"
value_measured = "169 to 172 °C"


* * *

measured metric: melting point

[[record]]
compound = "CCOC(=O)c1ccc(N)c(Cl)c1"
value_measured = "82 to 83 °C"

[[record]]
compound = "Cc1cc2c(cc1-c1cc(C=CC(=O)O)ccc1F)C(C)(C)CCC2(C)C"
value_measured = "181 to 183 °C"

[[record]]
compound = "COC(=O)C1=NNC(C)=C(C(=O)OC)C1c1ccc(C)cc1 (configuration not stated)"
value_measured = "180 °C"

[[record]]
compound = "COc1ccc2c(c1)c(-c1cc3nccnc3[nH]1)cn2C"
value_measured = "270 to 272 °C"

[[record]]
compound = "CCOCn1c(-c2ccc(Cl)cc2)c(C#N)c(Sc2ccc(Cl)cc2)c1C(F)(F)F"
value_measured = "98 to 100 °C"

[[record]]
compound = "CC1CN(C(=O)CO)C(C)(C)O1 (configuration not stated)"
value_measured = "50 to 53 °C"

[[record]]
compound = "COc1ccc2ccn(CC(N)=O)c2c1"
value_measured = "210 to 211 °C"


* * *

Below, each of the compounds is paired with its reported melting point value.
measured metric: melting point

[[record]]
compound = "Cc1ccc(C)c(Nc2ncc(C(=O)O)c(=O)[nH]2)c1"
value_measured = "242 to 244 °C"

[[record]]
compound = "OC1CC2OCCN3CCC4c5ccccc5N1C4C23 (stereo unspecified)"
value_measured = "180 °C"

[[record]]
compound = "Nc1ccc(C=CC=CC=CC=Cc2ccc(N)cc2)cc1"
value_measured = "262 to 264 °C"

[[record]]
compound = "CC(C(=O)O)c1ccc(Oc2ccc(Cl)cc2)cc1 (stereo unspecified)"
value_measured = "105 to 107 °C"

[[record]]
compound = "CCC(C)Sc1cc(C(F)(F)F)ccc1C(=O)O (stereo unspecified)"
value_measured = "99.8 to 101 °C"

[[record]]
compound = "CC1(C)CN(C(=O)Nc2cccnc2)c2cc(C#N)ccc21"
value_measured = "220 to 222 °C"

[[record]]
compound = "CN1CCC(c2c[nH]c3ccc(Sc4ccc(Cl)cc4)cc23)CC1"
value_measured = "148 to 150 °C"

[[record]]
compound = "COc1cc(C(=O)NC2CC2)c(Cl)cc1O"
value_measured = "214 to 216 °C"

[[record]]
compound = "CC(C)Oc1ccc(CCCOc2nn(Cc3ccccc3)cc2CC(=O)O)c(OCc2ccc(Cl)cc2Cl)c1"
value_measured = "103 to 104 °C"

[[record]]
compound = "O=C(O)c1cccc(Nc2nc(Oc3ccccc3)nc(Oc3cccc(Cl)c3)n2)c1"
value_measured = "227 to 230 °C"

[[record]]
compound = "CC(=O)OC1CSC(Oc2cccc(-c3cccnc3)n2)C(OC(C)=O)C1OC(C)=O (stereo unspecified)"
value_measured = "141 °C"

[[record]]
compound = "CN(C)C(=O)c1cc2c(NCCc3ccccc3)ncnc2s1"
value_measured = "157 °C"

[[record]]
compound = "CN(C)c1c(F)c(F)c(F)c2c1c(=O)c(C(=O)O)cn2C1COC1"
value_measured = "173 to 175 °C"

[[record]]
compound = "COc1ccc(C2=C(c3ccc(C=CC(=O)O)cc3)c3ccc(OC)cc3CC2)cc1"
value_measured = "206 °C"

[[record]]
compound = "CCCCCCCCCCCCCCC1(C(=O)OC)CO1 (stereo unspecified)"
value_measured = "47 to 48 °C"

[[record]]
compound = "COCC1OC(n2cnc3c(N)ncnc32)C(O)C1O (stereo unspecified)"
value_measured = "112 to 114 °C"

[[record]]
compound = "O=C(CCCCCCC(=O)c1ccc(O)cc1)c1ccc(O)cc1"
value_measured = "196 to 198 °C"

[[record]]
compound = "COc1ccc(C(=O)c2ccc(OCc3nc(-c4ccccc4)oc3C)cc2)c(OCC(=O)O)c1"
value_measured = "146 to 147 °C"

[[record]]
compound = "O=C(NCc1ccc(Cl)cc1)c1cnc2cc(C#CCO)ccc2c1O"
value_measured = "218 to 220 °C"

[[record]]
compound = "O=C(O)Cn1cc(Cc2nc3c(F)c(F)cc(F)c3s2)c2cc(OCc3ccccc3)ccc21"
value_measured = "165 to 168 °C"

[[record]]
compound = "CSc1cc(Cl)nn2c(-c3ccnc(N)c3)c(-c3ccc(F)c(C)c3)nc12"
value_measured = "237 to 238 °C"

[[record]]
compound = "COC(=O)CCCC#Cc1cc(Cl)ccc1NS(=O)(=O)c1cccc2ccccc12"
value_measured = "93 to 95 °C"

[[record]]
compound = "Cc1ccnc(C=Cc2ccccc2)n1"
value_measured = "65 to 67 °C"

[[record]]
compound = "CCCCOC(=O)COc1ccc(C(=O)Nc2cc(F)ccc2Sc2ccccc2-c2nnn[nH]2)cc1"
value_measured = "177 to 179 °C"

[[record]]
compound = "COC(=O)c1ccc2nc3n(c(=O)c2c1)CCC3=Cc1ccccc1C"
value_measured = "181 to 183 °C"

[[record]]
compound = "Clc1ccc(-c2cc(C3CCN(CCc4ccccc4)CC3)no2)cc1"
value_measured = "118 to 120 °C"

